So I've got a bunch of molecules here, and I need their GI50 values.
Test system: UO-31
Assay: NCI tumour cell line growth inhibition, 48 h
Activity calls are given as the source filed them. Cut-off read from the data, not from the text of the source: active = GI50 up to about 1.1 µM and inactive = higher.

Here is how some molecules turned out for GI50.
{"columns": ["MOLECULE", "GI50"],
 "data": [
  ["O=C1OC(c2ccccc2)=N/C1=C/NC(Cc1c[nH]c2ccccc12)C(=O)O (centres undefined)", "> 100 µM (inactive)"],
  ["CSC(=O)C[C@@]12O[C@@H]([C@@H](C)C3CCC4[C@@H]5C(O)CC6=CC(=O)C=C[C@]6(C)C5CC[C@@]43C)C[C@](C)(O1)C(C)(C)O2 (some centres undefined)", "12.3 µM (inactive)"],
  ["COc1ccc(N2CN3OC(=O)N(c4ccc(OC)cc4)[C@@]3(c3ccccc3)C2)cc1", "32.9 µM (inactive)"],
  ["Nc1nc(Cl)c(N)c(NC23CC4CC(CC(C4)C2)C3)n1", "1.69 µM (inactive)"],
  ["COc1ccc2[nH]c3c(c2c1)[C@H]1CCC(C(C)(C)C)C[C@H]1[C@H]1C(=O)N(c2ccccc2)C(=O)[C@@H]31 (some centres undefined)", "24 µM (inactive)"]
]}

I need GI50 for every entry listed below, if you could help.
1. CN(C)CCNc1ccc([N+](=O)[O-])c2sc3ccccc3c(=O)c12
2. CC(Nc1cccc(Cl)c1)c1ccncc1 (centres undefined)
3. BrC12C3C4C5C(C(C43)C13OCCO3)C52 (centres undefined)

Result block:
["4.34 µM (inactive)", "7.21 µM (inactive)", "> 100 µM (inactive)"]

Query block: Find the measured GI50 of O=CC[C@H]1CCc2ccccc2C12CCC(=O)CC2 and report it.
Result block: 33.7 µM (inactive)
